system: U251 CNS; assay: NCI tumour cell line growth inhibition, 48 h
Measured TGI of individual entries
assay_readout: TGI

compound	test_result
CC(C)C1=CC23CCC4C(C)(C(=O)O)CCCC4(C)C2CC1C(C(=O)O)C3C(=O)O (configuration not stated)	> 100 µM
Cc1ccc2nc(Cl)c(/C=N/N3C(=O)/C(=C/c4ccc(N(C)C)cc4)N=C3c3ccccc3)cc2c1	> 100 µM
CO/C(=N\N=C\c1cccc(C(F)(F)F)c1)c1ccncc1	80.2 µM
O=C(NC1(C(=O)O)CC1c1ccccc1)c1ccccc1 (configuration not stated)	> 100 µM
CC(C)(NC1=NCCO1)c1ccccc1	> 100 µM
c1ccc(C2=C(c3ccccc3)P(c3ccccc3)C2)cc1 (configuration not stated)	> 100 µM
CC(=O)NC1=CC(=O)c2cc(C)cc(O)c2C1=O	36.4 µM
NC1=C(Cl)C(=O)c2ccccc2C1=O	13.9 µM
COC(=O)[C@]12CC=C3O[C@@H]4OC5(CCCCC5)O[C@@H]4[C@H]3C1C(=O)C=CC2=O (some centres not stated)	36.1 µM
NC(=O)NCCCC(NC(=O)OCCCCCn1ccc(=O)[nH]c1=O)C(=O)O (configuration not stated)	> 100 µM
CCOC(=O)c1cnc2cc3cccccc3n2c1=O	> 100 µM
O=[N+]([O-])/C=C/c1ccc([N+](=O)[O-])cc1	3.52 µM
Cc1c(F)c(N)c2c(=O)cc(-c3ccc(NC(=O)C(N)CCCN=C(N)N)c(F)c3)oc2c1F (configuration not stated)	> 55.3 µM
O=C(c1ccccc1)N1C(=S)N(c2ccc([N+](=O)[O-])cc2)C(=Nc2ccccc2)C1=Nc1ccccc1	> 100 µM
Nc1nc(SCCC/C=C/I)nc2c1ncn2C1OC(CO)C(O)C1O (configuration not stated)	> 202 µM
CN(c1ccccc1Cl)S(=O)(=O)c1ccccc1[N+](=O)[O-]	> 100 µM
COC(=O)c1ccccc1CC(Cc1ccccc1)C(=O)OC (configuration not stated)	> 100 µM
